- Tgt: CCK-B receptor (Rattus norvegicus, UniProt P30553)
- Construct: cerebral cortex from rat was prepared and suspended in a buffer; from tissue; host or cells: rat cerebral cortex membrane suspension
- Assay Info: CCK-B receptor binding test (brain)
- Applied Conditions: rat cerebral cortex membranes, 125I-CCK-8, 20°C, 30 minutes; read-out: binding affinity (Ki,nM) CCK-B
Experimental Endpoint: Ki (nM)
Reply with just the number (in nM).

Request: Report Ki for Cc1cccc(NC(=O)N[C@@H]2N=C(c3ccccc3)c3ccccc3N(C)C2=O)c1 [Example L-365260, reference compound] please.
Result: 19

Request: Report Ki for CCOC(=O)CN1C(=O)C(NC(=O)Nc2cccc(C)c2)C=C(c2ccccc2)c2ccccc21 (single isomer, unassigned; (-)) please.
Result: 0.87

Request: Report Ki for Cc1ccccc1C(=O)CN1C(=O)C(NC(=O)Nc2ccccc2Cl)C=C(c2ccccc2)c2ccccc21 (single isomer, unassigned; (-)) please.
Result: 2.4

====

- Tgt: CCK-B receptor (Rattus norvegicus, UniProt P30553)
- Construct: cerebral cortex from rat was prepared and suspended in a buffer; from tissue; host or cells: rat cerebral cortex membrane suspension
- Assay Info: CCK-B receptor binding test (brain)
- Applied Conditions: rat cerebral cortex membranes, 125I-CCK-8, 20°C, 30 minutes; read-out: binding affinity (Ki,nM) CCK-B
Experimental Endpoint: Ki (nM)
Reply with just the number (in nM).

Request: Report Ki for CCOC(=O)CN1C(=O)C(NC(=O)Nc2cccc(OC)c2)C=C(c2ccccc2)c2ccccc21 (single isomer, unassigned; (-)) please.
Result: 0.92

Request: Report Ki for Cc1ccc(NC(=O)NC2C=C(c3ccccc3)c3ccccc3N(CC(=O)c3ccccc3C)C2=O)cc1 (single isomer, unassigned; (-)) please.
Result: 1.1

Request: Report Ki for COc1ccc(NC(=O)NC2C=C(c3ccccc3)c3ccccc3N(CC(=O)c3ccccc3C)C2=O)cc1 (single isomer, unassigned; (-)) please.
Result: 1.1

Request: Report Ki for CCOC(=O)CN1C(=O)C(NC(=O)Nc2ccc(C)cc2)C=C(c2ccccc2)c2ccccc21 (single isomer, unassigned; (-)) please.
Result: 2.1

Request: Report Ki for Cc1ccccc1NC(=O)NC1C=C(c2ccccc2)c2ccccc2N(CC(=O)c2ccccc2C)C1=O (single isomer, unassigned; (-)) please.
Result: 2.5

====

- Tgt: CCK-B receptor (Rattus norvegicus)
- Construct: cerebral cortex from rat was prepared and suspended in a buffer; from tissue; host or cells: rat cerebral cortex membrane suspension
- Assay Info: CCK-B receptor binding test (brain)
- Applied Conditions: ratio CCK-A / CCK-B binding affinity
Exercise: for every item that follows, state its recorded selectivity (A/B).
In your answer, state the number alone without any accompanying words.

Request: Recorded selectivity (A/B) for CCOC(=O)CN1C(=O)C(NC(=O)Nc2cccc(OC)c2)C=C(c2ccccc2)c2ccccc21 (single isomer, unassigned; (-)) with CCK-B receptor (Rattus norvegicus), please?
Result: 120

Request: Recorded selectivity (A/B) for Cc1ccccc1NC(=O)NC1C=C(c2ccccc2)c2ccccc2N(CC(=O)c2ccccc2C)C1=O (single isomer, unassigned; (-)) with CCK-B receptor (Rattus norvegicus), please?
Result: 124

Request: Recorded selectivity (A/B) for CCOC(=O)CN1C(=O)C(NC(=O)Nc2ccc(C)cc2)C=C(c2ccccc2)c2ccccc21 (single isomer, unassigned; (-)) with CCK-B receptor (Rattus norvegicus), please?
Result: 100

====

- Tgt: CCK-A receptor (Rattus norvegicus, UniProt P30551)
- Construct: The whole pancreas was removed from a male rat; from tissue; host or cells: rat pancreas membrane homogenate
- Assay Info: CCK-A receptor binding test (pancreas)
- Applied Conditions: rat pancreas membranes, 125I-CCK-8, 20°C, 30 minutes; read-out: binding affinity (Ki,nM) CCK-A
- Description: Experimental Example 1 : CCK-A receptor binding test (pancreas) The whole pancreas was removed from a male rat. The fat tissues were removed and the pancreas was homogenized (Brinkman Polytron PT20) in 50 mM Tris hydrochloric acid (pH 7.5). The homogenate was filtered through a nylon cloth (120 mesh) and centrifuged at 50,000 × g for 12 minutes. The obtained sediment was homogenized in Tris buffer as in the above and centrifuged. […]
Exercise: for every item that follows, state its recorded Ki.
Reply with just the number (in nM).

Request: Report Ki for COc1ccc(NC(=O)NC2C=C(c3ccccc3)c3ccccc3N(CC(=O)c3ccccc3C)C2=O)cc1 (single isomer, unassigned; (-)) please.
Result: 150

Request: Report Ki for Cc1ccc(NC(=O)NC2C=C(c3ccccc3)c3ccccc3N(CC(=O)c3ccccc3C)C2=O)cc1 (single isomer, unassigned; (-)) please.
Result: 200

Request: Report Ki for Cc1cccc(NC(=O)N[C@@H]2N=C(c3ccccc3)c3ccccc3N(C)C2=O)c1 [Example L-365260, reference compound] please.
Result: 390

Request: Report Ki for Cc1ccccc1C(=O)CN1C(=O)C(NC(=O)Nc2ccccc2Cl)C=C(c2ccccc2)c2ccccc21 (single isomer, unassigned; (-)) please.
Result: 290

====

- Tgt: CCK-A receptor (Rattus norvegicus)
- Construct: The whole pancreas was removed from a male rat; from tissue; host or cells: rat pancreas membrane homogenate
- Sequence (P30551 1-444): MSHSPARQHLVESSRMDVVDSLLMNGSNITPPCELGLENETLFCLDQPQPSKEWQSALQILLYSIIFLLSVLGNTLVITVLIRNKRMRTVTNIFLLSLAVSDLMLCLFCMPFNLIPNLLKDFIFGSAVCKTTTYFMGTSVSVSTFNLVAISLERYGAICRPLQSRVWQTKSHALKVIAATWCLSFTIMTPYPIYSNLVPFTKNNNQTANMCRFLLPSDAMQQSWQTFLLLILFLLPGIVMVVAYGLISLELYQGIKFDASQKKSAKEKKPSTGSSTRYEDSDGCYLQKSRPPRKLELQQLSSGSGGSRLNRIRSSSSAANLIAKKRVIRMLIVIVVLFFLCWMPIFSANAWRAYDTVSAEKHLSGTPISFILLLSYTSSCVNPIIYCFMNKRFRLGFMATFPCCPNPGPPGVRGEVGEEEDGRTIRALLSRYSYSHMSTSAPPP
- Assay Info: CCK-A receptor binding test (pancreas)
- Applied Conditions: rat pancreas membranes, 125I-CCK-8, 20°C, 30 minutes; read-out: binding affinity (Ki,nM) CCK-A
Experimental Endpoint: Ki (nM)
Reply with just the number (in nM).

Request: Report Ki for CCOC(=O)CN1C(=O)C(NC(=O)Nc2ccc(C)cc2)C=C(c2ccccc2)c2ccccc21 (single isomer, unassigned; (-)) please.
Result: 210

Request: Report Ki for CCOC(=O)CN1C(=O)C(NC(=O)Nc2cccc(C)c2)C=C(c2ccccc2)c2ccccc21 (single isomer, unassigned; (-)) please.
Result: 100

Request: Report Ki for CN1C(=O)C(NC(=O)c2cc3ccccc3[nH]2)C=C(c2ccccc2)c2ccccc21 (single isomer, unassigned; (+)) please.
Result: 4.7

Request: Report Ki for Cc1ccccc1C(=O)CN1C(=O)C(NC(=O)c2cc3ccccc3[nH]2)C=C(c2ccccc2)c2ccccc21 (single isomer, unassigned; (+)) please.
Result: 42

Request: Report Ki for Cc1ccccc1NC(=O)NC1C=C(c2ccccc2)c2ccccc2N(CC(=O)c2ccccc2C)C1=O (single isomer, unassigned; (-)) please.
Result: 310

Request: Report Ki for CCOC(=O)CN1C(=O)C(NC(=O)Nc2cccc(OC)c2)C=C(c2ccccc2)c2ccccc21 (single isomer, unassigned; (-)) please.
Result: 110

====

- Tgt: CCK-B receptor (Rattus norvegicus, UniProt P30553)
- Construct: cerebral cortex from rat was prepared and suspended in a buffer; from tissue; host or cells: rat cerebral cortex membrane suspension
- Sequence (P30553 1-452): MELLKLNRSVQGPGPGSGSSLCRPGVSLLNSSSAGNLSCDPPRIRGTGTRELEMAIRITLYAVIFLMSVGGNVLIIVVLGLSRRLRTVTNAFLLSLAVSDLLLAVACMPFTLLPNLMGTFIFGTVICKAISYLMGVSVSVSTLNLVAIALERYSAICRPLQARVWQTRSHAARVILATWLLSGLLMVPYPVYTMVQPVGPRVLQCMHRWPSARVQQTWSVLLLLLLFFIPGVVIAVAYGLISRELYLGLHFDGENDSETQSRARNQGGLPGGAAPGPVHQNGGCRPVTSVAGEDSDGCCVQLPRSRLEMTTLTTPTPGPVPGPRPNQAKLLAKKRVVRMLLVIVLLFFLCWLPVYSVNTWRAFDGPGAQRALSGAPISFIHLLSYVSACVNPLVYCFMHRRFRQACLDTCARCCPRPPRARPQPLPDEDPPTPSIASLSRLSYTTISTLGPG
- Assay Info: CCK-B receptor binding test (brain)
- Applied Conditions: ratio CCK-A / CCK-B binding affinity
Experimental Endpoint: selectivity (A/B)
In your answer, state the number alone without any accompanying words.

Request: Report selectivity (A/B) for Cc1cccc(NC(=O)N[C@@H]2N=C(c3ccccc3)c3ccccc3N(C)C2=O)c1 [Example L-365260, reference compound] please.
Result: 21

Request: Report selectivity (A/B) for COc1ccc(NC(=O)NC2C=C(c3ccccc3)c3ccccc3N(CC(=O)c3ccccc3C)C2=O)cc1 (single isomer, unassigned; (-)) please.
Result: 140

Request: Report selectivity (A/B) for Cc1ccccc1C(=O)CN1C(=O)C(NC(=O)Nc2ccccc2Cl)C=C(c2ccccc2)c2ccccc21 (single isomer, unassigned; (-)) please.
Result: 120

Request: Report selectivity (A/B) for Cc1ccc(NC(=O)NC2C=C(c3ccccc3)c3ccccc3N(CC(=O)c3ccccc3C)C2=O)cc1 (single isomer, unassigned; (-)) please.
Result: 180

Request: Report selectivity (A/B) for CCOC(=O)CN1C(=O)C(NC(=O)Nc2cccc(C)c2)C=C(c2ccccc2)c2ccccc21 (single isomer, unassigned; (-)) please.
Result: 110
